Could you please report measured pEC50 for the items listed next?
- SYSTEM_UNDER_TEST: full-length beta-Catenin (Uniprot ID P35222) (Homo sapiens (Human)) (UniProt P35222)
- ASSAY: fluorescence polarization competition; full-length beta-catenin, competitor 5FAM-TCF4(10-53) probe
Starred links: 1 amine or outer side, 2 acyl side, 3 side chain; linkers in the order of their positions; H or OH if unused. Positions of bridges follow the written chain, without caps; N, C: chain ends. Non-standard residues stand in square brackets, D forms with d. Primed or numbered codes have the meaning given here. No end group written: not given here. PyrS2″ = (S)-3-amino-1-((pent-4-en-1-yloxy)carbonyl)pyrrolidine-3-carboxylic acid (stapling residue), C=CCCCOC(=O)N1CC[C@@](N[*:1])(C(=O)[*:2])C1; B5(4) = 2,2-bis(4-pentenyl)glycine = 2-amino-2-(pent-4-en-1-yl)hept-6-enoic acid (stitching residue), C=CCCCC(CCCC=C)(N[*:1])C(=O)[*:2]; B5(3) = 2,2-bis(4-pentenyl)glycine (stitching residue), C=CCCCC(CCCC=C)(N[*:1])C(=O)[*:2]; Phe(3-COOH) = N[C@@H](Cc1cccc(C(=O)O)c1)C(=O)O; Phe(2-Cl) = N[C@@H](Cc1ccccc1Cl)C(=O)O; Bta = N[C@@H](Cc1csc2ccccc12)C(=O)O; αAllylPro = C=CC[C@@]1(C(=O)O)CCCN1; tBuAla = CC(C)(C)C[C@H](N)C(=O)O
The quantity pEC50 is defined as the negative base-10 logarithm of the molar concentration.

Fill in the blank: the reported pEC50 of [αAllylPro]D[tBuAla][B5(4)]D[Phe(3-COOH)]AAFF[PyrS2″][Phe(2-Cl)][Bta]S-NH2 (staple 1-4; staple 4-11 (inferred)) [I-1339] is ____.
7.48

Fill in the blank: the reported pEC50 of Ac-[αAllylPro]D[tBuAla][B5(3)]DDAAFL[PyrS2″][Phe(2-Cl)][Bta]S-NH2 (staple 1-4, 4-11; not fully specified; printed as Ac-PL3-Asp-Npg-B5-Asp-Asp-Ala-Ala-Phe-Leu-PyrS2-2C1F-BztA-Ser-NH2) [I-1065] is ____.
6.28
